System: S. pneumoniae D39V;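 note: first quartile when negative (synergy) and third quartile when positive (antagonism)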
Assay: Bliss interaction score (quartile over a dose matrix) (fitness difference); higher = more antagonism (negative = synergy)
measure: Bliss interaction score
No unit in the answer, please; the number alone is enough.

{"molecule": "Cc1ncc([N+](=O)[O-])n1CCO [Metronidazole] + CN(N=O)C(=O)N[C@@H](C=O)[C@@H](O)[C@H](O)[C@H](O)CO [Streptozotocin]", "Bliss interaction score": 0.0474}
{"molecule": "CC(=O)Oc1ccccc1C(=O)O [Acetylsalicylicacid] + CN1C2=CC=CC=C2N=C3C1=CC=CC3=O [Pyocyanin]", "Bliss interaction score": -0.0649}
{"molecule": "CO/N=C(\\C(=O)N[C@@H]1C(=O)N2C(C(=O)O)=C(COC(N)=O)CS[C@H]12)c1ccco1 [Cefuroxime] + CC1(C)S[C@@H]2[C@H](NC(=O)Cc3ccccc3)C(=O)N2[C@H]1C(=O)O [PenicillinG]", "Bliss interaction score": -0.0476}
{"molecule": "CC(=O)Oc1ccccc1C(=O)O [Acetylsalicylicacid] + COc1cc(Cc2cnc(N)nc2N)cc(OC)c1OC [Trimethoprim]", "Bliss interaction score": -0.163}
{"molecule": "CN(C)[C@@H]1C(O)=C(C(N)=O)C(=O)[C@@]2(O)C(O)=C3C(=O)c4c(O)ccc(Cl)c4[C@@](C)(O)[C@H]3C[C@@H]12 [Clortetracycline] + COc1cc(Cc2cnc(N)nc2N)cc(OC)c1OC [Trimethoprim]", "Bliss interaction score": -0.0376}
{"molecule": "CO/N=C(\\C(=O)N[C@@H]1C(=O)N2C(C(=O)O)=C(COC(N)=O)CS[C@H]12)c1ccco1 [Cefuroxime] + C/C(=C\\C(=O)OCCCCCCCCC(=O)O)C[C@@H]1OC[C@H](C[C@@H]2O[C@H]2[C@@H](C)[C@H](C)O)[C@@H](O)[C@H]1O [Pseudomonic acid]", "Bliss interaction score": 0.0629}

For reference, reported Bliss interaction score for N#CC(C#N)=NNc1cccc(Cl)c1 [CCCP] + CC1=C\[C@@H](O)CC(=O)Cc2nc(co2)C(=O)N2CCC=C2C(=O)O[C@H](C(C)C)[C@H](C)/C=C/C(=O)NC\C=C\1 [Virginiamycin M1] stands at 0.0981
